Consider the following IC50 values measured on Tyrosine-protein kinase JAK1 (Homo sapiens).
Outcome measure: IC50 (nM)

These solved cases illustrate the format of a correct answer.
COc1cc(-c2cnc3[nH]cc(C(=O)N[C@H](C)C(=O)N4CC(C#N)C4)c3n2)cc(OC)c1OC    7.4
C[C@@H](NC(=O)c1c[nH]c2ncc(-c3nn(C)c4cc(Cl)ccc34)nc12)C(=O)N1CC(C#N)C1    31
C[C@@H](NC(=O)c1c[nH]c2ncc(-c3nn(C)c4ccc(Cl)cc34)nc12)C(=O)N1CC(C#N)C1    61
C[C@@H](NC(=O)c1c[nH]c2ncc(-c3ncn4cc(F)ccc34)nc12)C(=O)N1CC(C#N)C1    16

A = C[C@@H](NC(=O)c1c[nH]c2ncc(-c3nn(C)c4cc(C(C)(C)C)ccc34)nc12)C(=O)N1CC(C#N)C1
B = C[C@@H](NC(=O)c1c[nH]c2ncc(-c3ncn4cc(F)cc(F)c34)nc12)C(=O)N1CC(C#N)C1
Compare the recorded IC50 of A and B ; state which is larger. Answer by quoting the chosen item's label. B

----------
- Assay procedure: physchem
Outcome measure: solubility

These solved cases illustrate the format of a correct answer.
C[C@@H](NC(=O)c1c[nH]c2ncc(-c3nn(C)c4cc(C#N)ccc34)nc12)C(=O)N1CC(C#N)C1    < 1 µg/mL
C[C@@H](NC(=O)c1c[nH]c2ncc(-c3nn(C)c4cc(F)ccc34)nc12)C(=O)N1CC(C#N)C1    < 1 µg/mL
C[C@@H](NC(=O)c1c[nH]c2ncc(-n3ncc4cc(Cl)ccc43)nc12)C(=O)N1CC(C#N)C1    < 1 µg/mL
COc1ccc2c(-c3cnc4[nH]cc(C(=O)N[C@H](C)C(=O)N5CC(C#N)C5)c4n3)nn(C)c2c1    < 1 µg/mL
C[C@@H](NC(=O)c1c[nH]c2ncc(-c3nn(C)c4cc(Cl)cc(F)c34)nc12)C(=O)N1CC(C#N)C1    < 1 µg/mL
CCn1cc(-c2cnc3[nH]cc(C(=O)N[C@H](C)C(=O)N4CC(C#N)C4)c3n2)cn1    366 µg/mL
C[C@@H](NC(=O)c1c[nH]c2ncc(-c3ncn4cc(F)ccc34)nc12)C(=O)N1CC(C#N)C1    39 µg/mL

The record that follows has no solubility shown yet.
Consider the compound `C[C@@H](NC(=O)c1c[nH]c2ncc(-c3ncn4cc(F)cc(F)c34)nc12)C(=O)N1CC(C#N)C1` and give its recorded solubility. 31 µg/mL

----------
- Assay procedure: physchem
Outcome measure: solubility

C[C@@H](NC(=O)c1c[nH]c2ncc(C3CC3)nc12)C(=O)N1CC(C#N)C1    277 µg/mL

Consider the molecule `C[C@@H](NC(=O)c1c[nH]c2ncc(-c3cn(C)c4cc(Cl)ccc34)nc12)C(=O)N1CC(C#N)C1` and give its recorded solubility. < 1 µg/mL

Consider the molecule `CC[C@@H](NC(=O)c1c[nH]c2ncc(-c3nn(C)c4cc(Cl)ccc34)nc12)C(=O)N1CC(C#N)C1` and give its recorded solubility. < 1 µg/mL

Consider the molecule `C[C@@H](NC(=O)c1c[nH]c2ncc(-c3nn(C)c4cc(Cl)ccc34)nc12)C(=O)N1CC(C#N)C1` and give its recorded solubility. < 1 µg/mL
